# System: Caenorhabditis elegans N2
# runDescription: mean nematode size ln(EXT) after 48 h, plate-adjusted (DMSO control set to 6) (ln(EXT), control-adjusted); higher = larger nematodes / less growth inhibition
# conditionParameters: 50 µM; exposure time 48 h
endpointLabel: mean nematode size ln(EXT) (ln)

INSERT INTO assay_data (compound, system, valuereported) VALUES
  ('O=c1c(O)c(-c2ccc(O)c(O)c2)oc2cc(O)cc(O)c12 [2-(3,4-Dihydroxy-phenyl)-3,5,7-trihydroxy-chromen-4-one]', 'Caenorhabditis elegans N2', 4.75),
  ('CCOP(=S)(OCC)OC(Cl)C(Cl)(Cl)Cl (stereo not given)', 'Caenorhabditis elegans N2', 4.54),
  ('CC(C)[C@H](C(=O)O[C@H](C#N)c1cccc(Oc2ccccc2)c1)c1ccc(Cl)cc1 [Esfenvalerate]', 'Caenorhabditis elegans N2', 5.74),
  ('C=CCOC(=O)c1ccccc1C(=O)OCC=C [Diallyl phthalate]', 'Caenorhabditis elegans N2', 5.88),
  ('CCOc1ccc2c(c1)C(C)=CC(C)(C)N2', 'Caenorhabditis elegans N2', 5.71);

Measured values drawn from the supplement of paper PMC4858399 for this set.
